- System: Escherichia coli TOP10;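 also: peptides expressed intracellularly from a pBAD plasmid library in pooled LB shake-flask culture, induced with 0.3% L-arabinose, DNA abundance read by NGS, three biological replicates, DESeq2 with apeglm shrinkage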
- protocol: shrunken log2 fold change of peptide-encoding DNA abundance (4.5 h post-induction vs induction); higher = less antimicrobial activity (less host growth inhibition)
- protocol.conditions: time post-induction: 4.5 h; library: site-saturation at positions 5, 18, 19, 20
# label = t if shrunken log2 fold change >= -0.08 else f

1) RRIRLRPPRLPRPRPRPAHMPRP: t
2) RRIRPRPPRLPRPRPRPVYTPRP: f
3) RRIRIRPPRLPRPRPRPAWRPRP: t
4) RRIRCRPPRLPRPRPRPQDCPRP: f
5) RRIRTRPPRLPRPRPRPRMPPRP: t
6) RRIRNRPPRLPRPRPRPNQYPRP: f
7) RRIRFRPPRLPRPRPRPPKIPRP: t
8) RRIRRRPPRLPRPRPRPKHVPRP: t
9) RRIRPRPPRLPRPRPRPVHQPRP: t
10) RRIRCRPPRLPRPRPRPMGLPRP: t
11) RRIRDRPPRLPRPRPRPQCCPRP: t
12) RRIRCRPPRLPRPRPRPKMFPRP: f
13) RRIRERPPRLPRPRPRPQKLPRP: f
14) RRIRWRPPRLPRPRPRPYNRPRP: f
15) RRIRRRPPRLPRPRPRPKSTPRP: t
16) RRIRKRPPRLPRPRPRPWKGPRP: t
17) RRIRSRPPRLPRPRPRPINEPRP: f
18) RRIRDRPPRLPRPRPRPWPWPRP: f
19) RRIRQRPPRLPRPRPRPAGKPRP: t
20) RRIRVRPPRLPRPRPRPAGEPRP: t
21) RRIRARPPRLPRPRPRPNWAPRP: t
22) RRIRARPPRLPRPRPRPSWYPRP: f
23) RRIRIRPPRLPRPRPRPMNRPRP: f
24) RRIRYRPPRLPRPRPRPCEPPRP: t
25) RRIRYRPPRLPRPRPRPDGFPRP: f
26) RRIRFRPPRLPRPRPRPMGRPRP: t
27) RRIRSRPPRLPRPRPRPAMTPRP: t
28) RRIRCRPPRLPRPRPRPLNNPRP: f
29) RRIRCRPPRLPRPRPRPTFHPRP: f
30) RRIRSRPPRLPRPRPRPKQFPRP: t
31) RRIRQRPPRLPRPRPRPHKSPRP: t
32) RRIRGRPPRLPRPRPRPFHGPRP: t
